Entries and their measured viability at 28.5 h, 10 µM follow.
ASSAY_NAME: in vitro
ASSAY_CONDITIONS: human, hela cells, % viability
Write the value in % as a bare number.

Reference set, count: 3
{"MOLECULE": "COc1cc2c(c(OC)c1OC)C1(CCN(Cc3ccc(S(C)(=O)=O)cc3)CC1)NC(=O)C2", "UNITS_OF_MEASURE": "%", "viability at 28.5 h, 10 µM": 108}
{"MOLECULE": "O=C(CCn1ccnc1)NCC1Cc2ccccc2O1 (centres unmarked)", "UNITS_OF_MEASURE": "%", "viability at 28.5 h, 10 µM": 81}
{"MOLECULE": "CN(C)S(=O)(=O)c1cccc(C(=O)N(Cc2ccc(F)cc2)Cc2ccco2)c1", "UNITS_OF_MEASURE": "%", "viability at 28.5 h, 10 µM": 88.8}

What the record says about Cc1n[nH]c(-c2ccc(OCc3cnn(-c4ccccc4)c3)cc2O)c1Oc1ccc(F)cc1 : viability at 28.5 h, 10 µM is 116

O=S(=O)(c1ccccc1Br)N1CCOCC1 yielded viability at 28.5 h, 10 µM of 96.9
